# protocol.details: Lipophilicity determination by RP-HPLC (capacity factor k / logk)
# Type: physicochemical
# test.context: series A; π = logkS − logkU, unsubstituted 1a as reference
recorded.metric: πA (distributive parameter π calculated from logk)

O=C(Nc1ccccc1)c1cc2ccccc2cc1O; 0
CCCCOc1cccc(NC(=O)c2cc3ccccc3cc2O)c1 [12a]; 1.02
CCOc1ccc(NC(=O)c2cc3ccccc3cc2O)cc1; 0.15
CCCOc1ccc(NC(=O)c2cc3ccccc3cc2O)cc1 [10a]; 0.75
CC(C)Oc1ccccc1NC(=O)c1cc2ccccc2cc1O [14a]; 0.66
CCCCOc1ccccc1NC(=O)c1cc2ccccc2cc1O [11a]; 1.08

a: CCCOc1ccccc1NC(=O)c1cc2ccccc2cc1O
b: COc1cccc(NC(=O)c2cc3ccccc3cc2O)c1
Please choose the item with the lower πA (distributive parameter π calculated from logk) value from this pair: a and b // return label of chosen record
b
(b: 0.04, a: 0.74)
